Data credit: ChEMBL document CHEMBL1817631

tested on: OVCAR-5; assay: Growth inhibition of human OVCAR5 cells; assay type: functional
We begin with a simple list: items and their reported GI50.

Previously resolved entries follow.
> print(dat)
                                   molecule  value.reported
1  CCOC(=O)C1=C(C)NC(=S)NC1c1cccc(O)c1 (centres undefined)         79.4 µM
2  N[C@@H](CSC(c1ccccc1)(c1ccccc1)c1ccccc1)C(=O)O          100 µM
3  COc1ccc(C(SC[C@H](N)CO)(c2ccccc2)c2ccccc2)cc1         0.39 µM

Shift focus to the following entry.
# get_value(readout='GI50', item= `COc1ccc(C(SCCN)(c2ccccc2)c2ccccc2)cc1` ) 0.57 µM

---

tested on: UO-31; test: Growth inhibition of human UO31 cells; type: functional
We begin with a simple list: items and their reported GI50.
Answer in µM, number only, no unit symbol.

> print(dat)
                                   compound  parameter.measured  readout.unit  value.reported
1     COc1ccc(C(SCCN)(c2ccccc2)c2ccccc2)cc1                GI50            µM             0.5
2  COc1ccc(C(SC[C@H](N)CO)(c2ccccc2)c2ccccc2)cc1                GI50            µM             1.1
3  N[C@@H](CSC(c1ccccc1)(c1ccccc1)c1ccccc1)C(=O)O                GI50            µM             100

# get_value(readout='GI50', item= CCOC(=O)C1=C(C)NC(=S)NC1c1cccc(O)c1 (centres undefined) ) 100

---

biological target: Kinesin-like protein KIF11 (Homo sapiens, UniProt P52732); test: Inhibition of human recombinant microtubule-activated KSP motor domain ATPase activity after 10 mins by end-point assay
Sequence (P52732 whole entry, the tested form may be a part): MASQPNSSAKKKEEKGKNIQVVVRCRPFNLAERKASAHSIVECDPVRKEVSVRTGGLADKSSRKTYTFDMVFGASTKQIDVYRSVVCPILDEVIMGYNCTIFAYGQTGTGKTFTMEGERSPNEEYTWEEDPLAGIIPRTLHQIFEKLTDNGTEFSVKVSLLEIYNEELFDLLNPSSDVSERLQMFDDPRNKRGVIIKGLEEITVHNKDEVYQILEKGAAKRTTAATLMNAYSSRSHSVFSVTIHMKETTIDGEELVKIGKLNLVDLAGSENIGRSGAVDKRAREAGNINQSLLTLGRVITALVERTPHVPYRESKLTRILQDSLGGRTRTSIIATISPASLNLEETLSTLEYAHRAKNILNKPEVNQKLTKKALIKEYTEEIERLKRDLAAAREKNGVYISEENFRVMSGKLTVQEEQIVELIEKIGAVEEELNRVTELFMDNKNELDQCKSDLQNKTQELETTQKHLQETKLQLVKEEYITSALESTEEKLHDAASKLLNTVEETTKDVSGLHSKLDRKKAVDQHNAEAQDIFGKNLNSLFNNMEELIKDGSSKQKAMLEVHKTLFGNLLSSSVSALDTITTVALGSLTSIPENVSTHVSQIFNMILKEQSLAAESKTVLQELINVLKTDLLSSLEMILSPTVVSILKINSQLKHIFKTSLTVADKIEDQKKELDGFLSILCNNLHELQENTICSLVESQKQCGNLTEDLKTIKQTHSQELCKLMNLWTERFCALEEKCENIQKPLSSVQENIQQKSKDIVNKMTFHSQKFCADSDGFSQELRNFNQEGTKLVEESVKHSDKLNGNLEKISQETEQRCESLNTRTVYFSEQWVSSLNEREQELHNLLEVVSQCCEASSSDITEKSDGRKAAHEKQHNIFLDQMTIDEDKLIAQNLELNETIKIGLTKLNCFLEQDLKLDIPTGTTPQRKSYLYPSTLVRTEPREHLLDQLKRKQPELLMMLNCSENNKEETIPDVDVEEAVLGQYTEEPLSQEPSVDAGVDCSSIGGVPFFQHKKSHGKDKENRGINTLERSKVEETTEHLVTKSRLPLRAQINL
Parameter measured: pIC50
Quick note: pIC50 means taking -log10 of the concentration in moles per liter.

# get_value(readout='pIC50', item= `COc1ccc(C(SCCN)(c2ccccc2)c2ccccc2)cc1` ) 6.87
